Assignment: determine reported TGI for the given molecules.
tested on: A549 NSCLC; assay: NCI tumour cell line growth inhibition, 48 h
Numbers only, in µM.

State the recorded TGI for every item in the following list.
1. CC1=CC(=O)C(O)C2(C)C1CC(O)C13COC4(C)C(OC(=O)C41)C(O)C23 (stereo not given)
2. O=C(O)/C(Cl)=C(\Cl)C(=O)Nc1ccc(Cl)c(Cl)c1Cl

1: 34; 2: 35.2

----------
Assignment: determine reported TGI for the given compounds.
test system: NCI-H23 lung; assay: NCI tumour cell line growth inhibition, 48 h

OC1(c2ccccc2)CSC2=Nc3ccccc3C3CCN1N23 (configuration not stated)	79.2 µM
COc1ccc(CSc2ccccc2Cn2cccc2)cc1OC	> 100 µM

State the recorded TGI for every item in the following list.
1. N/N=C1\CC(=O)NC(=O)N1
2. O=C(NC1CCCC1=O)c1ccccc1 (configuration not stated)
3. Cc1cc(O)c(C(C)C)cc1C1(c2cc(C(C)C)c(O)cc2C)OC(=O)c2ccccc21
4. O=C(O)CNC(=O)c1c2ccccc2nc2ccccc12
5. O=C1C[C@@H](c2ccccc2)O[C@@H](c2ccccc2)C1
6. O=c1[nH]cnc2c(C3NC(CO)C(O)C3O)c[nH]c12 (configuration not stated)

1. > 100 µM
2. > 100 µM
3. 5.13 µM
4. > 100 µM
5. > 100 µM
6. > 100 µM

State the recorded TGI for every item in the following list.
1. CCC[C@H](C)C[C@H](C)C[C@H](C)/C=C(\C)[C@@H](O)[C@@H](C)C(=O)CC
2. CCOC(=O)c1ccc(C(=O)C(C(C)=O)C(=O)OC(C)(C)C)[nH]1 (configuration not stated)
3. COc1ccc(/C=N/NC(=O)Cn2c(-c3ccc(S(C)(=O)=O)cc3)nc3cc(Cl)ccc32)cc1
4. O=C(Nc1cccc(Nc2ncc(Br)c(NCCc3cnc[nH]3)n2)c1)N1CCCC1

1. 33.3 µM
2. > 100 µM
3. > 50 µM
4. 21.3 µM

----------
Assignment: determine reported TGI for the given compounds.
system: COLO 205 colon; experiment: NCI tumour cell line growth inhibition, 48 h

// known answers, use as guide
Cc1ccc(N=Nc2c(O)c(C(=O)Nc3ccccc3)cc3ccccc23)c([N+](=O)[O-])c1	> 100 µM
O=C(O)COc1c(Cl)cc(Cl)c2cccnc12	> 100 µM

Reported TGI for O=C(Cc1ccccc1)NN1C(=O)C(Cl)C1c1ccccc1O (stereo not drawn) : what is it? > 100 µM

----------
system: CCRF-CEM leukemia; assay: NCI tumour cell line growth inhibition, 48 h
Assignment: determine reported GI50 for the given compounds.

// known answers, use as guide
COc1ccc(OC)c(C2SCC(=O)N2NC(=O)C(O)c2ccccc2)c1 (centres undefined)	> 100000 nM
Cn1cc(-c2nonc2-c2cn(C)c3ccccc23)c2ccccc21	703 nM
Cc1nc2ccccc2c(/C=C/c2ccc(Br)cc2)c1C(=O)/C=C/c1ccccc1	1480 nM

Now take the following compound into account.
Checklist item: GI50 tested on CCRF-CEM leukemia, entry COc1ccc(C2[C@@H](Cl)C(=O)N2c2cc(OC)c(OC)c(OC)c2)cc1Cl (some centres undefined) , value? 190 nM

----------
tested on: HS 578T breast; test: NCI tumour cell line growth inhibition, 48 h
REPORTED_METRIC: TGI

// known answers, use as guide
O=C(CC(=O)Nc1ccccc1)N/N=C/c1cc(N=Nc2ccc(Br)cc2)ccc1O	> 10 µM
CCOc1nc(N)nc(C)c1N=Nc1ccc(Cl)cc1	38.4 µM
CSCCC(NC(=O)Cc1ccc(C(=O)c2ccccc2)cc1)C(=O)O (configuration not stated)	> 100 µM
Cc1cc(O)c(C(C)C)cc1C1(c2cc(C(C)C)c(O)cc2C)OC(=O)c2ccccc21	6.88 µM
Cc1ccc(/C(O)=C/C(=O)C(=O)NN=C(c2ccccc2)c2ccccc2)cc1	> 100 µM

State the recorded TGI for every item in the following list.
1. COc1cccc(NC(=O)C(C#N)=C(SC)SC)c1
2. Cc1c(C2=C(c3cn(C)c4ccccc34)C(=O)NC2=O)c2ccccc2n1C

1: > 100 µM; 2: > 25 µM

----------
tested on: SK-MEL-5 melanoma; test: NCI tumour cell line growth inhibition, 48 h
REPORTED_METRIC: GI50

// known answers, use as guide
C[CH2][Pb]([CH2]C)([CH2]C)[O]C(=O)c1ccc2ccccc2n1	> 10000 nM
C[C@@H]1O[C@@H](OC[C@H]2O[C@@H](OCCc3ccc(O)c(O)c3)[C@H](O)[C@@H](O)[C@@H]2OC(=O)/C=C/c2ccc(O)c(O)c2)[C@H](O)[C@H](O)[C@H]1O	> 100000 nM
Nc1ccc(-c2nc3ccccc3[nH]2)c2ccccc12	1650 nM

State the recorded GI50 for every item in the following list.
1. COc1ccc2cc(-c3c(-c4ccncc4)nc(-c4ccc(S(C)=O)cc4)n3C)ccc2c1 (stereo unspecified)
2. CCN(Cc1ccc(Cl)s1)c1ccc(CO)c(Cl)c1
3. CN1CCN(CC(O)COc2c(Br)c(Br)c(Br)c3c2OC(C)(C)C3)CC1 (stereo unspecified)

5580 nM
1900 nM
1830 nM

----------
Assignment: determine reported TGI for the given compounds.
tested on: SNB-19 CNS; assay: NCI tumour cell line growth inhibition, 48 h

// known answers, use as guide
CNc1ccc(N)cc1C(=O)N1CCC[C@H]1CO	> 100 µM
CCCCCCCCCCCCCP(=O)(O)NCC(N)=O	> 100 µM

State the recorded TGI for every item in the following list.
1. CC(C)=C/C=C1/CS(=O)(=O)C=C1C
2. c1ccc(P(=Nc2ccccc2N=P(c2ccccc2)(c2ccccc2)c2ccccc2)(c2ccccc2)c2ccccc2)cc1
3. Cc1cc(O)c(C(C)C)cc1C1(c2cc(C(C)C)c(O)cc2C)OC(=O)c2ccccc21
4. CCNC1=C(NC(=O)CC)C(=O)c2ccccc2C1=O
5. c1ccc2c3c([nH]c2c1)C1CCCN1CC3 (stereo not drawn)
6. COc1ccc(OC)c(C2SCC(=O)N2NC(=O)C(O)c2ccccc2)c1 (stereo not drawn)

> 100 µM
16.9 µM
> 35.1 µM
> 100 µM
> 10 µM
> 100 µM

----------
Assignment: determine reported TGI for the given compounds.
system: RXF 393 renal; test: NCI tumour cell line growth inhibition, 48 h

// known answers, use as guide
COC(=O)CC1NC(=O)C1C1(C)OCCO1 (stereo not drawn)	> 100 µM
Cc1cc(N(CCC#N)CCC#N)ccc1/C=C1N=C(/C=C\c2ccccc2)N(c2ccc(Cl)cc2)C\1=O	> 100 µM

Now take the following compound into account.
Reported TGI for CC(NC(C)(C)C)C(=O)c1cccc(Cl)c1 (stereo not drawn) : what is it? > 100 µM

----------
tested on: HCT-116 colon; assay: NCI tumour cell line growth inhibition, 48 h
REPORTED_METRIC: TGI

CC(C)C1=CC23CCC4C(C)(C(=O)O)CCCC4(C)C2CC1C1C(=O)N(c2ccc(C(=O)O)cc2)C(=O)C13 (stereo not drawn)	> 100 µM
COc1cccc(NC(=O)C(C#N)=C(SC)SC)c1	> 100 µM

Now take the following molecule into account.
Reported TGI for "O=C(/C=C/c1csc(-c2ccccc2)n1)NCc1ccc(C(=O)NCc2ccccc2)cc1" : what is it? > 100 µM

----------
Assignment: determine reported TGI for the given compounds.
tested on: HCC-2998 colon; assay: NCI tumour cell line growth inhibition, 48 h

// known answers, use as guide
CCCCCCCCCCCCCP(=O)(O)NCC(N)=O	> 100 µM
CN(C)c1ccc(N=Nc2ccncc2)cc1	92.6 µM
O=C(N/N=C/c1cc(Cl)cc(Cl)c1O)c1ccccc1O	14.6 µM
CC(C)C1=CC23CCC4C(C)(C(=O)O)CCCC4(C)C2CC1C1C(=O)N(c2ccc(C(=O)O)cc2)C(=O)C13 (centres undefined)	> 100 µM
CCOC(=O)C(=O)Nc1cc(Cl)ccc1Cl	> 100 µM
[N-]=[N+]=C1C(=O)C2CC3CC(C2)CC1C3	> 100 µM
OC(c1ccc(-c2ccccc2)cc1)C(F)(F)c1nc2ccccc2o1 (centres undefined)	> 100 µM
Nc1nc(Cl)c(N)c(NCC2(CO)CC(CCCc3ccccc3)C2)n1 (centres undefined)	> 100 µM
CN(CCCNC(=O)c1nn(-c2ccc(Cl)cc2Cl)c2c1Cc1ccccc1-2)CCCNC(=O)c1nn(-c2ccc(Cl)cc2Cl)c2c1Cc1ccccc1-2	3 µM
C=C1CCC2[C@@H](CCC3[C@]2(C)CCC[C@]3(C)C(=O)OC)[C@@H]1CC=O (some centres undefined)	> 100 µM

State the recorded TGI for every item in the following list.
1. CCOC1=C2N=C(Cc3ccccc3F)N=C2C(=O)c2ccccc21
2. COc1ccc(C(=O)N2c3ccccc3Sc3ccccc32)c(OC)c1
3. Cn1c2ccccc2n2c(=O)c3c(c(C#N)c12)CCCC3
4. Cc1c(C2=C(c3cn(C)c4ccccc34)C(=O)NC2=O)c2ccccc2n1C

["> 100 µM", "8.09 µM", "> 100 µM", "> 25 µM"]

Provenance of the data: PubChem BioAssay (NCI)
